- System: PC3
- assay remarks: CIMA assay (colorimetric indicator of metabolic activity), 72 h exposure
- Type: cell-based
- condition label: PC3, SDS 5% control; 0 = 100.0
property measured: AVG (viability, CIMA assay) (%)
Answer in %, number only, no unit symbol.

AVG (viability, CIMA assay) in this record for CCCCCCCCCCCCOS(=O)(=O)[O-].[Na+] [SDS] : 77.3
